# protocol_description: chemical genetic growth profiling, strain panel (AID 1159580);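 further: tested at 20 µM; growth read once vehicle control cultures reached saturation at 30 °C; 1 = growth at the plate median or of vehicle wells; lower values mean less growth of the strain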
# experimental_context: S. cerevisiae deletion strains, growth OD, locus YCL069W, strain vba3, active compounds read low
Screen size: about 5,500 compounds; about 2,000 (36%) were called active. Another 18% or so got no clear call; they are omitted. Some of the results follow.

{"compound": "Cc1cc(O)cc(O)c1C(=O)O", "normalized growth": 1.01}
{"compound": "Cc1cc(O)cc(C)c1Cl", "normalized growth": 0.929}
{"compound": "O=C(O)CC(O)(CC(=O)O)C(=O)O", "normalized growth": 1.01}
{"compound": "NC(Cc1c[nH]c2ccccc12)C(=O)O (configuration not stated)", "normalized growth": 1.03}
{"compound": "CCCCCCCCCCCCCCC(C(=O)O)C(O)(CC(=O)OC)C(=O)O (configuration not stated)", "normalized growth": 1.02}
{"compound": "COc1c(-c2coc3cc4c(cc3c2=O)CC(O)C(C)(C)O4)ccc2c1C=CC(C)(C)O2 (configuration not stated)", "normalized growth": 0.97}
{"compound": "Cc1cc(O)ccc1Cl", "normalized growth": 1.02}
{"compound": "Nc1ccc(S(=O)(=O)Nc2ccnn2-c2ccccc2)cc1", "normalized growth": 0.991}
{"compound": "CCCCCCCCCCCC[C@H](C(=O)O)[C@@H](C)C(=O)O", "normalized growth": 0.975}
{"compound": "Cc1ccnc(NS(=O)(=O)c2ccc(N)cc2)n1", "normalized growth": 0.998}
{"compound": "COc1c(-c2coc3cc4c(cc3c2=O)CC(OC(C)=O)C(C)(C)O4)ccc2c1C=CC(C)(C)O2 (configuration not stated)", "normalized growth": 1.04}
{"compound": "CC(C)(Sc1cc(C(C)(C)C)c(O)c(C(C)(C)C)c1)Sc1cc(C(C)(C)C)c(O)c(C(C)(C)C)c1", "normalized growth": 1.01}
